These data points were gathered from the supplement of paper PMC8149375.

- System: A498
- Measurement Description: minimum viability across doses, drug alone, relative to DMSO (fraction); higher = less growth inhibition
- Condition Set: treatment: drug alone; 5 days
Please use yes (1) for minimum viability across doses under 0.6 and no (0) for everything else, ties included.

Examples from the recorded data:
{"Compound": "O=C(c1ccc(/C=C/c2n[nH]c3ccccc23)cc1)N1CCNCC1 [KW 2449]", "Target Or System": "A498", "Class Name": "no (0)"}
{"Compound": "Cc1ccc(C(=O)Nc2cccc(C(F)(F)F)c2)cc1Nc1nc(-c2cccnc2)nc2c1cnn2C [NVP-BHG712]", "Target Or System": "A498", "Class Name": "yes (1)"}
{"Compound": "COCCOc1ccc2c(c1)ncn2-c1ccc2cccc(N3CCC(N)CC3)c2n1", "Target Or System": "A498", "Class Name": "yes (1)"}
{"Compound": "O=C(Nc1c[nH]nc1-c1nc2cc(CN3CCOCC3)ccc2[nH]1)NC1CC1 [AT9283]", "Target Or System": "A498", "Class Name": "yes (1)"}
{"Compound": "CC(=O)c1c(C)c2cnc(Nc3ccc(N4CCNCC4)cn3)nc2n(C2CCCC2)c1=O.Cl", "Target Or System": "A498", "Class Name": "no (0)"}
{"Compound": "COc1cc2c(N3CCN(C(=O)Nc4ccc(OC(C)C)cc4)CC3)ncnc2cc1OCCCN1CCCCC1 [Tandutinib (MLN518)]", "Target Or System": "A498", "Class Name": "no (0)"}
{"Compound": "COC(=O)Nc1ccc(-c2nc(N3CCOCC3)c3cnn(C4CCN(C(=O)OC)CC4)c3n2)cc1 [WYE-354]", "Target Or System": "A498", "Class Name": "yes (1)"}
{"Compound": "CC(C)NC[C@@H](C(=O)N1CCN(c2ncnc3c2[C@H](C)C[C@H]3O)CC1)c1ccc(Cl)cc1 [GDC-0068]", "Target Or System": "A498", "Class Name": "no (0)"}
{"Compound": "COc1cc(Nc2ncc(F)c(Nc3ccc4c(n3)N(COP(=O)(O)O)C(=O)C(C)(C)O4)n2)cc(OC)c1OC [R788 (Fostamatinib)]", "Target Or System": "A498", "Class Name": "no (0)"}
{"Compound": "CN(C)C1CCN(C(=O)c2ccc(NC(=O)Nc3ccc(-c4nc(N5CCOCC5)nc(N5CCOCC5)n4)cc3)cc2)CC1", "Target Or System": "A498", "Class Name": "yes (1)"}

Threshold test, minimum viability across doses < 0.6: O=c1[nH]c2ccc(Cl)cc2c(N[C@@H]2CN3CCC2CC3)c1-c1nc2ccccc2[nH]1 [CHIR-124]
yes (1)

Hello, is minimum viability across doses of the following compound strictly smaller than 0.6? `O=c1cc(N2CCOCC2)oc2c(-c3cccc4c3sc3ccccc34)cccc12`
no (0)

Say whether its minimum viability across doses is strictly beneath 0.6. Entry: CN1CCN(CCOc2cc(OC3CCOCC3)c3c(Nc4c(Cl)ccc5c4OCO5)ncnc3c2)CC1 [Saracatinib (AZD0530)]
no (0)

Determine whether this compound shows minimum viability across doses lower than 0.6 (ties excluded): CC[C@H](CO)Nc1nc(NCc2ccccc2)c2ncn(C(C)C)c2n1 [Roscovitine (Seliciclib, CYC202)]
no (0)

* * *

- System: UO-31
- Measurement Description: minimum viability across doses, drug + dasatinib, relative to DMSO (fraction); higher = less growth inhibition
- Condition Set: treatment: drug + dasatinib (fixed dose, not stated); 5 days
1.0 if minimum viability across doses is below 0.009. 0.0 if not; exact matches included in 0.0.

{"Compound": "COC[C@H]1OC(=O)c2coc3c2[C@@]1(C)C1=C(C3=O)[C@@H]2CCC(=O)[C@@]2(C)C[C@@H]1OC(C)=O [Wortmannin] + Cc1nc(Nc2ncc(C(=O)Nc3c(C)cccc3Cl)s2)cc(N2CCN(CCO)CC2)n1", "Target Or System": "UO-31", "Class Name": 0.0}
{"Compound": "COc1cc2ncnc(Nc3ccc(F)c(Cl)c3)c2cc1OCCCN1CCOCC1 [Gefitinib (Iressa)] + Cc1nc(Nc2ncc(C(=O)Nc3c(C)cccc3Cl)s2)cc(N2CCN(CCO)CC2)n1", "Target Or System": "UO-31", "Class Name": 0.0}
{"Compound": "O=C(NC1CCNCC1)c1n[nH]cc1NC(=O)c1c(Cl)cccc1Cl [AT7519] + Cc1nc(Nc2ncc(C(=O)Nc3c(C)cccc3Cl)s2)cc(N2CCN(CCO)CC2)n1", "Target Or System": "UO-31", "Class Name": 1.0}

Could you now consider this next compound?
Would you kindly verify if minimum viability across doses of Clc1ccc(C2(c3ccc(-c4cn[nH]c4)cc3)CCNCC2)cc1 [AT7867] + Cc1nc(Nc2ncc(C(=O)Nc3c(C)cccc3Cl)s2)cc(N2CCN(CCO)CC2)n1 is strictly less than 0.009?
1.0
